ASSAY DETAILS: CelltiterGlo viability cell assay
Type: cell-based
EXPERIMENTAL PARAMETERS: human, CAL851 breast cancer cells, CAL851, 3 day, 3 uM; read-out: viability Replicate 3

- LINE NOTATION: "COc1cc(OC)cc(-c2noc(N3CCN(C)C4(CCN(c5ccnc(C)c5)CC4)C3)n2)c1"
  viability at 3 day, 3 µM [%]: 96.5

###

ASSAY DETAILS: CelltiterGlo viability cell assay
Format: cell-based
EXPERIMENTAL PARAMETERS: human, HCC1143 breast cancer cells, HCC1143, 3 day, 9.5 uM; read-out: viability Replicate 1

- LINE NOTATION: "COc1cc(OC)cc(-c2noc(N3CCN(C)C4(CCN(c5ccnc(C)c5)CC4)C3)n2)c1"
  viability at 3 day, 9.5 µM / %: 73.8
